Experiment: Cytotoxicity against human HuH7 cell
Type: cell-based, Huh-7
Settings: HuH7 cells
measured.quantity: CC50 (µM)
Kindly provide the numeric value in µM only, without the unit symbol.

Exam item: Fill in reported CC50 for this entry: CC1(C)CC(=O)N(C[C@@H](NC(=O)Nc2nc(Cl)c(CCC3CCCCC3)n(CC(=O)Nc3cc(F)ccc3C(=O)NS(=O)(=O)c3ccc(C(F)(F)F)cc3)c2=O)C(C)(C)C)C(=O)C1
Marked response: 26

----------
Target: NS3 (Hepatitis C virus, UniProt A3EZJ3)
Sequence (A3EZJ3 whole entry): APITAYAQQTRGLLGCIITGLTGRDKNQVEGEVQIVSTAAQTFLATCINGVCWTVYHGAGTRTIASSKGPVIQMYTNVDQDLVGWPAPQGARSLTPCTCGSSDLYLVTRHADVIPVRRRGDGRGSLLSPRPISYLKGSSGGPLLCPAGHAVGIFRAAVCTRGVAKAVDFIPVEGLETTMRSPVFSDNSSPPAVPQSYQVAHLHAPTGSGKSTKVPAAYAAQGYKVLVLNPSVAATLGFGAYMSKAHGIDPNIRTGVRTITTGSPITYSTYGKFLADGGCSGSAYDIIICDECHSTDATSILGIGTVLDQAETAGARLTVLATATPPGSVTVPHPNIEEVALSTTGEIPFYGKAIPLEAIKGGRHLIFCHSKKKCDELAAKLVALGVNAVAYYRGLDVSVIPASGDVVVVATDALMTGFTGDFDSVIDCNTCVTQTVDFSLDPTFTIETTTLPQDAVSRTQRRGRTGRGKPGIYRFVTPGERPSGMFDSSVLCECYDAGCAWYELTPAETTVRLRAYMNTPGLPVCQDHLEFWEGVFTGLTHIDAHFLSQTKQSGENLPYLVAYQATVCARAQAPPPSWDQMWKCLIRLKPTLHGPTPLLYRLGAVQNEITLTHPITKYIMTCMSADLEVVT
Experiment: Inhibition of HCV genotype-1a NS3 protease
Parameters: species or system Hepatitis C virus subtype 1a
measured.quantity: Ki (nM)
Kindly provide the numeric value in nM only, without the unit symbol.

Exam item: Fill in reported Ki for this entry: COc1ccc2c(O[C@@H]3C[C@H]4C(=O)N[C@]5(C(=O)O)C[C@H]5/C=C\CCCCC[C@H](NC(=O)OC5CCCC5)C(=O)N4C3)cc(-c3csc(NC(C)C)n3)nc2c1
Marked response: 0.089
